Measured Target: CREBBP bromodomain (Homo sapiens, UniProt Q92793)
Construct: amplify the bromodomain region of the; made in house
Sequence (Q92793 1085-1192 limits assumed): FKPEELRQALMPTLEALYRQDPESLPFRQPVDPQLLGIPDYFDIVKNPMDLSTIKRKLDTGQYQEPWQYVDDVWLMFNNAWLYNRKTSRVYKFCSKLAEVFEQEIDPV
Assay Comment: AlphaScreen peptide displacement assay
Type: binding
Measurement Conditions: peptide and protein concentration = 25 nM, range in parentheses, read-out: IC50/nM vs CREBBP
Doc: threshold 2000 nM (exclusive). Items with IC50 beneath it return 1; others return 0.

                                   molecule  cat
0  COc1ccc2c(c1)N(CCCNC(=O)c1c(F)ccc3c1N[C@H](C)C(=O)N3)CCC2 [(R)-8]    0
1  COc1ccc2c(c1)CCCN2CCCNC(=O)c1cccc2c1N[C@H](C)C(=O)N2 [(R)-6]    1
2  C[C@H]1Nc2c(cccc2C(=O)NCCCN2CCCc3ccccc32)NC1=O [(R)-1]    1
3  C[C@@H]1Nc2c(cccc2C(=O)NCCCN2CCCc3ccccc32)NC1=O [(S)-1]    0
4  COc1ccc2c(c1)N(CCCNC(=O)c1cc(F)cc3c1N[C@H](C)C(=O)N3)CCC2 [(R)-7]    1

Say whether its IC50 is strictly beneath 2000 nM. Entry: C[C@H]1Nc2c(cccc2C(=O)NCCCN2CCOc3ccccc32)NC1=O [(R)-5] 1
